IC50 overview
target: KDM4E (JMJD2E); KDM4E(1-377) (Homo sapiens); construct: residues 1-377 (JmjN and JmjC domains); recombinant, E. coli BL21(DE3)-R3 with pRARE2; assay: RapidFire MS demethylation assay; format: biochemical; settings: read-out: pIC50 ± s.e.m. / inhibition of H3(1-15)K9me2 demethylation (converted)
// return numeric value only (unit: µM, not printed)

# input Identify measured IC50 associated with CN(C)CCCNC(=O)c1ccc(-c2cc(O)c3ncccc3c2)cc1
# output 4.79

# input Identify measured IC50 associated with O=C(O)CC[C@@H](O)C(=O)O
# output 11.5

# input Identify measured IC50 associated with O=C(O)/C=C/C(=O)O [fumarate]
# output 1950

# input Identify measured IC50 associated with CC(=O)N(O)CCCCCNC(=O)CCC(=O)N(O)CCCCCNC(=O)CCC(=O)N(O)CCCCCN
# output 2.4

---

IC50 overview
biological target: KDM4E (JMJD2E); KDM4E(1-377) (Homo sapiens, UniProt B2RXH2); construct: residues 1-377 (JmjN and JmjC domains); recombinant, E. coli BL21(DE3)-R3 with pRARE2; test: RapidFire MS demethylation assay; format: biochemical; conditions: read-out: pIC50 ± s.e.m. / inhibition of H3(1-15)K9me2 demethylation (converted)
Sequence (B2RXH2 1-377): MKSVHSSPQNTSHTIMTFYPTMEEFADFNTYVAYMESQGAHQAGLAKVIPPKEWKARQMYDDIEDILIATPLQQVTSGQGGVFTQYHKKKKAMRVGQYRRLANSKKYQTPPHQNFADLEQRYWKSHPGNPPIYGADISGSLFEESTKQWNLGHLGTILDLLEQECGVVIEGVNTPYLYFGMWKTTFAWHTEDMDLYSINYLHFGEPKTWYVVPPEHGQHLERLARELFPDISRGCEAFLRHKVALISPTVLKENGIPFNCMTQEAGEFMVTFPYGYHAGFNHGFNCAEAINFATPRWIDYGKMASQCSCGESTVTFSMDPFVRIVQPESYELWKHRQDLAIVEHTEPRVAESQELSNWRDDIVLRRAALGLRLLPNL
// return numeric value only (unit: µM, not printed)

Recorded IC50, per entry:
molecule | measurement-target | IC50, µM
CCN(CCN(C)C)C(=O)CNCc1cc(C(=O)O)ccn1 | KDM4E (JMJD2E); KDM4E(1-377) (Homo sapiens, UniProt B2RXH2) | 2.09
O=C(O)CC[C@H](O)C(=O)O | KDM4E (JMJD2E); KDM4E(1-377) (Homo sapiens, UniProt B2RXH2) | 13.5
CCN(CCN(C)C)C(=O)CNCc1cc(C(N)=O)ccn1 | KDM4E (JMJD2E); KDM4E(1-377) (Homo sapiens, UniProt B2RXH2) | 182
O=C(O)CCC(=O)O [succinate] | KDM4E (JMJD2E); KDM4E(1-377) (Homo sapiens, UniProt B2RXH2) | 148

With those in mind, consider the next molecule.
# input Identify measured IC50 associated with CC(C)c1c(-c2ccccc2)[nH]c2c(C#N)cnn2c1=O
# output 4.47
